Overview of reported Kd across a group of binders:
target: T1, full length human tau protein 2N4R (hT40) (human, UniProt P10636 1-758); experiment: Biacore
T1 construct: recombinant; also called T441
T1 sequence (P10636 other isoform, or with tags, fused parts or gaps limits assumed): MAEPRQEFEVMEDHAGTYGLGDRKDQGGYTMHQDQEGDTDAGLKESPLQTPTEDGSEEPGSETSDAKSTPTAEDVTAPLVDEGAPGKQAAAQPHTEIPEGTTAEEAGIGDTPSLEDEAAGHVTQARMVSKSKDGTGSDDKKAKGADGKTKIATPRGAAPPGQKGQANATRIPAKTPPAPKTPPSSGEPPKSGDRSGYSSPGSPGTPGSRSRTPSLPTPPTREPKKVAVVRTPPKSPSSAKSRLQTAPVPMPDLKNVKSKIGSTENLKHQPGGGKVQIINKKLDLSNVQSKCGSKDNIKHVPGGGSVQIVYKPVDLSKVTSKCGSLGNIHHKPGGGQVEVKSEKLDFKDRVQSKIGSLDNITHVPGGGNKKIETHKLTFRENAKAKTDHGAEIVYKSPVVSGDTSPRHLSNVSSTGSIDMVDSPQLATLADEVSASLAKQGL
Hi! Could you send only the number? It should be in nM, unit omitted.

CB7 scAb (scFv, not shown: small tags and cut ends, scAb) scFv: QVQLQESGPSLVKPSQTLSLTCTVSGFSLTNYRVGWVRQAPGKALEWVSNIRSGGTTWYNPALKSRLSITADTSKSQVSLSLSSVTTEDTAVYYCARDSSGDLYAYDYWGPGLLVTVSSEGKSSGASGESKVDDQAVLTQPSSVSRSLGQSVSMTCSGSSSNVGYGNYMAWFQQVPGSAPKLLIYGATSRASGVPDRFSGSRSGNTATLTISSLQAEDEADYYCASYDSTSGGVFGSGTRLTVLG = 5.2
S1G2 scAb (scFv, not shown: small tags and cut ends, scAb) scFv: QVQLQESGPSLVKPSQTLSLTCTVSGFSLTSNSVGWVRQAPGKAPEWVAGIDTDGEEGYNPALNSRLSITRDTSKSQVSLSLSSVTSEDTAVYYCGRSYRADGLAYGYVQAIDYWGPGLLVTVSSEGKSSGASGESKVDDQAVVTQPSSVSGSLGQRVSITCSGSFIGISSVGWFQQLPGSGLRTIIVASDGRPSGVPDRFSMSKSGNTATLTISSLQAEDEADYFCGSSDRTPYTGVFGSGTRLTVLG = 0.6

Incoming: I am curious: what Kd value has been reported for 412E10 scAb (scFv, not shown: small tags and cut ends, scAb) scFv: QVQLQESGPSLVKPSQTLSLTCTVSGFSVISDSVAWVRQAPGKVPEWLGASGSSGNKYYNPALKSRLSITRDTSKSQVSLSLSSVTTEDTAVYYCARGIIAGVDVWGRGLLVTVSSEGKSSGASGESKVDDQAVLTQPSSVSGSLGQRVSITCSGSSSNVGYGNYVGWYQQVPGSAPKLLIYGTAIRASGVPDRFSGSRSGDTATLTITSLQAEDEADYYCASYQSNYAFFGSGTRLTVLG ?
Outgoing: 3.3

Incoming: I am curious: what Kd value has been reported for CA4 scAb (scFv, not shown: small tags and cut ends, scAb) scFv: QVQLQESGPSLVKPSQTLSLTCTVSGFSLTSYSVYWVRQAPGQALEWISIMYASGRVDYNPALKSRLSITRDTSKSQFSLSLSSVTTEDTAVYYCTRGIENWGPGLLVTVSSEGKSSGASGESKVDDDIQVTQSPSSLSASLTERVSITCRTSQSVNNYLSWYQQKPGQAPKLLIYYATRLYTDVPSRFSGSGSGTDYTLTITSLEADDTATYYCLQYDSTPLAFGGGTNVEIK ?
Outgoing: 3.6

Source listed as patent US20250355001A1.
